ASSAY_TARGET: Angiotensin II receptor (AT-1) type-1 (Rattus norvegicus, UniProt P29089+P25095)
MEASUREMENT_PROTOCOL: Concentration required for 50% inhibition of [125I]- AII binding to rat liver membrane preparation (AT1)
READOUT: IC50 (nM)

{"INPUT_SMILES": "CCCCc1nc(SC)c(C(=O)CC(=O)c2ccccc2)n1Cc1ccc(-c2ccccc2S(=O)(=O)NC(=O)NCc2ccccc2)cc1", "ENDPOINT_UNIT": "nM", "IC50": 0.2}

I = CCCCc1nc(SC)c(C(=O)CS(C)(=O)=O)n1Cc1ccc(-c2ccccc2S(=O)(=O)NC(=O)NCc2ccccc2)cc1
II = CCCc1nc(SC)c(C(=O)CSc2ccccc2)n1Cc1ccc(-c2ccccc2S(=O)(=O)NC(=O)NCc2ccccc2)cc1
Param metric = IC50; output whichever of I , II has the minimum value. Please respond with the label that marks your chosen entry. I
(I: 0.08 nM, II: 0.2 nM)
